# ASSAY SYSTEM: IGF1R (Homo sapiens)
# Construct: 6×His- or GST-tagged kinase domain fragments of the corresponding RTKs expressed in baculovirus system; host or cells: baculovirus system
# Sequence (P08069 999-1274 limits assumed): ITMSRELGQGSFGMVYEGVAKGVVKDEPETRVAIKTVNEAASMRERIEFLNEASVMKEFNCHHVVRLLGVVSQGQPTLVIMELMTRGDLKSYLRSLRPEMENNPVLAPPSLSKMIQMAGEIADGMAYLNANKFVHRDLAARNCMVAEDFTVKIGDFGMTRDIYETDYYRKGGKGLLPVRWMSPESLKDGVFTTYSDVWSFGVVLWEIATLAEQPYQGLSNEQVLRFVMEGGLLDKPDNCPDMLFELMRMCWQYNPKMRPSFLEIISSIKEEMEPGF
# ASSAY SUMMARY: IGF1R kinase assay
# Type: biochemical
# SETUP CONDITIONS: Table 1; read-out: IGF1R IC50
MEASURED PROPERTY: IC50

Parameters: items (list). Returns: IC50 for each item.
1. CC(Cc1cccs1)Nc1cc[nH]c(=O)c1-c1nc2cc3c(cc2[nH]1)CN(CCCN1CCCC1)C3=O (stereo not drawn)
2. Cc1ccc(F)cc1C[C@H](C)Nc1cc[nH]c(=O)c1-c1nc2cc3c(cc2[nH]1)CN(CCN1CCOCC1)C3=O
3. CNCCN1Cc2cc3[nH]c(-c4c(N[C@@H](C)Cc5cc(F)ccc5C)cc[nH]c4=O)nc3cc2C1=O [drawing 348]
4. C[C@@H](Cc1cc(F)ccc1Cl)Nc1cc[nH]c(=O)c1-c1nc2cc3c(cc2[nH]1)CN(CCN1CCCC1)C3=O
5. C[C@@H](Cc1cc(F)ccc1Br)Nc1cc[nH]c(=O)c1-c1nc2cc3c(cc2[nH]1)CN(CCN1CCCC1)C3=O [drawing 330]

1: 250 to 1000 nM; 2: 100 to 250 nM; 3: 10 to 100 nM; 4: 250 to 1000 nM; 5: 250 to 1000 nM

Parameters: items (list). Returns: IC50 for each item.
1. C[C@H](Cc1cccs1)Nc1cc[nH]c(=O)c1-c1nc2c(Cl)c3c(cc2[nH]1)C(=O)N(C1CCN(C)CC1)C3
2. Cc1c(F)cccc1C[C@H](C)Nc1cc[nH]c(=O)c1-c1nc2cc3c(cc2[nH]1)C(=O)N(CCN1CCCC1)C3
3. Cc1ccsc1C[C@H](C)Nc1cc[nH]c(=O)c1-c1nc2cc3c(cc2[nH]1)CN(CCN1CCC[C@H]1C)C3=O

250 to 1000 nM
250 to 1000 nM
250 to 1000 nM

Parameters: items (list). Returns: IC50 for each item.
1. C[C@H](CN1Cc2cc3nc(-c4c(N[C@@H](C)Cc5sccc5Cl)cc[nH]c4=O)[nH]c3cc2C1=O)N(C)C
2. Cc1ccc(C(F)(F)F)cc1C[C@H](C)Nc1cc[nH]c(=O)c1-c1nc2cc3c(cc2[nH]1)CN(CCN(C)C)C3=O
3. Cc1ccsc1C[C@H](C)Nc1cc[nH]c(=O)c1-c1nc2cc3c(cc2[nH]1)CN(CCN1CCCC1)C3=O

1: 250 to 1000 nM; 2: 100 to 250 nM; 3: 250 to 1000 nM

* * *

# ASSAY SUMMARY: Pharmacokinetics study in CD-1 mice (IV, PO)
# Type: in vivo
# SETUP CONDITIONS: CD-1, mouse, plasma, po, 5 mg/kg, PO 5 mg/kg, time point 6, individual animals A-D
MEASURED PROPERTY: concentration at 6 h (ng/mL)
Numbers only, in ng/mL.

For the compound `Cc1ccc(F)cc1C[C@H](C)Nc1cc[nH]c(=O)c1-c1nc2cc3c(cc2[nH]1)C(=O)N(CCN1CCCC1)C3` , what concentration at 6 h is on record? 1.34

* * *

# ASSAY SUMMARY: Aqueous Solubility (PBS, pH 7.4)
# Assay type: physicochemical
# SETUP CONDITIONS: pH 7.4, PBS, pH 7.4, 2.0E−04 M, Tables 9C, 9D, read-out: Solubility Mean
Structures can show the parent of a compound that is named as a salt.
I'd be grateful if you could share measured log10(solubility) for these entries.
Field: value | Transform: log10 | Quantity: solubility | Unit: µM

Parameters: items (list). Returns: log10(solubility) for each item.
1. COCCc1ccc(OCC(O)CNC(C)C)cc1 (stereo not shown) [Metoprolol tartrate]
2. CO[C@H]1/C=C/O[C@@]2(C)Oc3c(C)c(O)c4c(O)c(c(/C=N/N5CCN(C)CC5)c(O)c4c3C2=O)NC(=O)/C(C)=C\C=C\[C@H](C)[C@H](O)[C@@H](C)[C@@H](O)[C@@H](C)[C@H](OC(C)=O)[C@@H]1C [Rifampicin]
3. O=C1NC(=O)C(c2ccccc2)(c2ccccc2)N1 [Phenytoin]
4. CC/C(=C(/CC)c1ccc(O)cc1)c1ccc(O)cc1 [Diethylstilbestrol]
5. O=C(CCCN1CCC(O)(c2ccc(Cl)cc2)CC1)c1ccc(F)cc1 [Haloperidol]

1: 2.28; 2: 2.26; 3: 1.94; 4: 0.93; 5: 1.79

Parameters: items (list). Returns: log10(solubility) for each item.
1. Cc1ccc(F)cc1C[C@H](C)Nc1cc[nH]c(=O)c1-c1nc2cc3c(cc2[nH]1)C(=O)N(CCN1CCCC1)C3 [compound (II)]
2. CC(=O)N1CCN(c2ccc(OCC3COC(Cn4ccnc4)(c4ccc(Cl)cc4Cl)O3)cc2)CC1 (stereo not shown) [Ketoconazole, ketoconazole, reference compound]

[1.53, 2.03]
